System: Sunflower
Protocol: Test C preemergence
Type: in vivo
Setup Conditions: Rate 500 g/ha, visual evaluation after 12 to 14 days
Readout Type: Plant response rating (0 to 100), Sunflower
Format: numeric value only, no unit, no commentary.

Below, 5 compounds whose answers are already recorded.
CCOC(=O)c1cccc(N2CCC(n3ccc(C(C)(C)C)n3)C2=O)c1 (stereo not shown) : 60
COc1cc(N2CCC(n3ccc(C(C)(C)C)n3)C2=O)ccc1Br (stereo not shown) : 100
CC(C)Oc1cccc(N2CCC(n3ccc(C(C)(C)C)n3)C2=O)c1 (stereo not shown) : 60
COc1cccc(N2CCC(n3ccc(C(C)(C)C)n3)C2=O)c1 (stereo not shown) : 30
COc1cc(OC)cc(N2CCC(n3ccc(C(C)(C)C)n3)C2=O)c1 (stereo not shown) : 20

Please provide the recorded Plant response rating (0 to 100), Sunflower for CCC(CC)c1ccn(C2CCN(c3ccc(Cl)c(OC)c3)C2=O)n1 (stereo not shown) , tested on Sunflower.
70

Continue with CCCC(C)c1ccn(C2OCN(c3cccc(OC(F)(F)F)c3)C2=O)n1 (stereo not shown)
10

Would you mind doing CCC(CC)c1ccn(C2CCN(c3ccc(F)c(C(F)(F)F)c3)C2=O)n1 (stereo not shown) as well?
70

Okay, and CCC(C)c1ccn(C2CCN(c3cccc(OC(C)C)c3)C2=O)n1 (stereo not shown) ?
70

And for COc1cc(N2CCC(n3ccc(C(C)C)n3)C2=O)ccc1Br (stereo not shown) ?
90
